# TARGET: OXA-11 (Pseudomonas aeruginosa, UniProt Q06778)
# Construct: made in house; host or cells: E. coli
# Sequence (Q06778 21-266): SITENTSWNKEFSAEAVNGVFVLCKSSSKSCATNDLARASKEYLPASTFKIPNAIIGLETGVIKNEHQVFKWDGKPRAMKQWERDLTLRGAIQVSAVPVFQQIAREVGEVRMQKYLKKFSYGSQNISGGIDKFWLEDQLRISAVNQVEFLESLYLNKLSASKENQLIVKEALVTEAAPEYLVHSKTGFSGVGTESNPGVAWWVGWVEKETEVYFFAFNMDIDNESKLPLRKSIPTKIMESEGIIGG
# PROCEDURE_DETAILS: β-lactamase inhibitory activity, determination of IC50 (nitrocefin hydrolysis)
# Assay type: biochemical
TEST_READOUT: pIC50
pIC50 here: minus log base 10 of the concentration, concentration in moles per litre.

Q) What value of pIC50 has been reported for the following compound? O=C1N2CC(c3ncco3)=C[C@H](C2)N1OC(F)(F)C(=O)O (racemic) [Example 37]
A) 6.68

Q) What value of pIC50 has been reported for the following compound? O=C1N2CC=C(c3cnoc3)C(C2)N1OC(F)(F)C(=O)[O-].[Li+] (stereo not shown) [Example 6]
A) 6.74

Q) What value of pIC50 has been reported for the following compound? O=C1N2CC=C(c3cnsc3)C(C2)N1OS(=O)(=O)[O-].[Na+] (stereo not shown) [Example 29, sulfate]
A) 5.77

Q) What value of pIC50 has been reported for the following compound? Cn1ncc(C2=CCN3CC2N(OS(=O)(=O)[O-])C3=O)cc1=O.[Na+] (stereo not shown) [Example 19, sulfate]
A) 6.54

* * *

Give measured MIC for each item. Keep answers brief.
# System: E. coli UFR61O (TEM-1, KPC-2)
# PROCEDURE_DETAILS: MIC of compounds alone, broth microdilution
# Type: cell-based
# MEASUREMENT_CONDITIONS: Escherichia coli; strain UFR61O (E. coli); read-out: MIC compounds of the invention alone
Numeric only. Scale: µg/mL

Q) What value of MIC has been reported for the following compound? NCc1cnc(C2=CC3CN(C2)C(=O)N3OS(=O)(=O)O)s1 (stereo not drawn) [Example 38]
A) 2

Q) What value of MIC has been reported for the following compound? O=C1N2CC=C(c3cnco3)C(C2)N1OS(=O)(=O)[O-].[Na+] (stereo not drawn) [Example 3]
A) 16

Q) What value of MIC has been reported for the following compound? O=C1N2CC(c3ncco3)=CC(C2)N1OS(=O)(=O)[O-].[Na+] (stereo not drawn) [Example 25]
A) 8

Q) What value of MIC has been reported for the following compound? O=C1N2CC(c3ncco3)=C[C@H](C2)N1OS(=O)(=O)[O-].[Na+] [Example 44]
A) 4

Q) What value of MIC has been reported for the following compound? O=C1N2CC(c3ccncc3)=CC(C2)N1OS(=O)(=O)[O-].[Na+] (stereo not drawn) [Example 33]
A) 16

Q) What value of MIC has been reported for the following compound? O=C1N2CC=C(c3cnoc3)C(C2)N1OS(=O)(=O)[O-].[Na+] (stereo not drawn) [Example 5]
A) 8

Q) What value of MIC has been reported for the following compound? O=C1N2CC(c3cccnc3)=CC(C2)N1OS(=O)(=O)[O-].[Na+] (stereo not drawn) [Example 41]
A) 16

Q) What value of MIC has been reported for the following compound? Cn1cc(C2=CCN3CC2N(OS(=O)(=O)[O-])C3=O)cnc1=O.[Na+] (stereo not drawn) [Example 15]
A) 8

* * *

# System: E. cloacae UFR51 (SHV-12, IMP-8)
# PROCEDURE_DETAILS: MIC of ceftazidime (CAZ) in combination with compounds at 4 μg/mL, broth microdilution
# Type: cell-based
# MEASUREMENT_CONDITIONS: strain UFR51; MIC of CAZ with compound fixed at 4 μg/mL
Give measured MIC combination of CAZ and compounds of the invention at 4 μg/mL for each item. Keep answers brief.

Q) What value of MIC combination of CAZ and compounds of the invention at 4 μg/mL has been reported for the following molecule? O=C1N2CC(c3ncco3)=CC(C2)N1OS(=O)(=O)[O-].[Na+] (centres unmarked) [Example 25]
A) <0.25 µg/mL

Q) What value of MIC combination of CAZ and compounds of the invention at 4 μg/mL has been reported for the following molecule? NCc1cnc(C2=CC3CN(C2)C(=O)N3OS(=O)(=O)O)s1 (centres unmarked) [Example 38]
A) <0.25 µg/mL

Q) What value of MIC combination of CAZ and compounds of the invention at 4 μg/mL has been reported for the following molecule? O=C1N2CC(c3cccnc3)=CC(C2)N1OS(=O)(=O)[O-].[Na+] (centres unmarked) [Example 41]
A) <0.25 µg/mL

Q) What value of MIC combination of CAZ and compounds of the invention at 4 μg/mL has been reported for the following molecule? Cn1cc(C2=CCN3CC2N(OS(=O)(=O)[O-])C3=O)cnc1=O.[Na+] (centres unmarked) [Example 15]
A) 1 µg/mL

Q) What value of MIC combination of CAZ and compounds of the invention at 4 μg/mL has been reported for the following molecule? Cn1ncc(C2=CCN3CC2N(OS(=O)(=O)[O-])C3=O)cc1=O.[Na+] (centres unmarked) [Example 19]
A) <0.25 µg/mL

Q) What value of MIC combination of CAZ and compounds of the invention at 4 μg/mL has been reported for the following molecule? O=C1N2CC=C(c3cnco3)C(C2)N1OS(=O)(=O)[O-].[Na+] (centres unmarked) [Example 3]
A) <0.25 µg/mL

Q) What value of MIC combination of CAZ and compounds of the invention at 4 μg/mL has been reported for the following molecule? O=C1N2CC(c3ncco3)=C[C@H](C2)N1OS(=O)(=O)[O-].[Na+] [Example 44]
A) <0.25 µg/mL

Q) What value of MIC combination of CAZ and compounds of the invention at 4 μg/mL has been reported for the following molecule? O=C1N2CC(c3ccncc3)=CC(C2)N1OS(=O)(=O)[O-].[Na+] (centres unmarked) [Example 33]
A) >128 µg/mL

* * *

# System: E. cloacae P99 (AmpC)
# PROCEDURE_DETAILS: MIC of compounds alone, broth microdilution
# Format: cell-based
# MEASUREMENT_CONDITIONS: Enterobacter cloacae; strain P99 (E. cloacae); read-out: MIC compounds of the invention alone
TEST_READOUT: MIC (µg/mL)
Numeric only. Scale: µg/mL

Q) What value of MIC has been reported for the following compound? O=C1N2CC(c3cnco3)=CC(C2)N1OS(=O)(=O)[O-].[Na+] (centres unmarked) [Example 35]
A) 8

Q) What value of MIC has been reported for the following compound? O=C1N2CC(c3ncco3)=CC(C2)N1OS(=O)(=O)[O-].[Na+] (centres unmarked) [Example 25]
A) 8

Q) What value of MIC has been reported for the following compound? O=C1N2CC=C(c3ncco3)C(C2)N1OS(=O)(=O)[O-].[Na+] (centres unmarked) [Example 4]
A) 16

Q) What value of MIC has been reported for the following compound? O=C1N2CC=C(c3cnco3)C(C2)N1OS(=O)(=O)[O-].[Na+] (centres unmarked) [Example 3]
A) 8

* * *

# TARGET: OXA-48 (Klebsiella pneumoniae, UniProt Q6XEC0)
# Construct: made in house; host or cells: E. coli
# Sequence (Q6XEC0 23-265 limits assumed): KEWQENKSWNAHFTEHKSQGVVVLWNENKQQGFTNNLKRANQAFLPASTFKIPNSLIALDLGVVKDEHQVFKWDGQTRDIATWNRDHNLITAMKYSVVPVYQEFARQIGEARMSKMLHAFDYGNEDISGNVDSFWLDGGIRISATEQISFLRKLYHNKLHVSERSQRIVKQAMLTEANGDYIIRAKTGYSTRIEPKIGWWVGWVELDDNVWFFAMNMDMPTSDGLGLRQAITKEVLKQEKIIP
# PROCEDURE_DETAILS: β-lactamase inhibitory activity, determination of IC50 (nitrocefin hydrolysis)
# Type: biochemical
# MEASUREMENT_CONDITIONS: class (D); nitrocefin 200 μM, 30 min pre-incubation; read-out: IC50 β-lactamase OXA-48
Give measured pIC50 for each item. Keep answers brief.
pIC50 here: minus log base 10 of the concentration, concentration in moles per litre.

Q) What value of pIC50 has been reported for the following compound? O=C1N2CC=C(c3cncnc3)C(C2)N1OS(=O)(=O)[O-].[Na+] (centres unmarked) [Example 10, sulfate]
A) 8.21

Q) What value of pIC50 has been reported for the following compound? O=C1N2CC=C(c3ccccn3)C(C2)N1OS(=O)(=O)[O-].[Na+] (centres unmarked)
A) 8.29

Q) What value of pIC50 has been reported for the following compound? Cn1cc(C2=CCN3CC2N(OS(=O)(=O)[O-])C3=O)ncc1=O.[Na+] (centres unmarked) [Example 14, sulfate]
A) 8.85

Q) What value of pIC50 has been reported for the following compound? Cn1ccc(C2=CCN3CC2N(OS(=O)(=O)[O-])C3=O)cc1=O.[Na+] (centres unmarked) [Example 13, sulfate]
A) 8.64

Q) What value of pIC50 has been reported for the following compound? Cn1cccc(C2=CCN3CC2N(OS(=O)(=O)[O-])C3=O)c1=O.[Na+] (centres unmarked) [Example 16, sulfate]
A) 8.00

Q) What value of pIC50 has been reported for the following compound? Cn1ncc(C2=CCN3CC2N(OS(=O)(=O)[O-])C3=O)cc1=O.[Na+] (centres unmarked) [Example 19, sulfate]
A) 8.33

Q) What value of pIC50 has been reported for the following compound? O=C1N2CC=C(c3ncco3)C(C2)N1OS(=O)(=O)[O-].[Na+] (centres unmarked)
A) 8.54

Q) What value of pIC50 has been reported for the following compound? O=C1N2CC=C(c3cccnc3)C(C2)N1OS(=O)(=O)[O-].[Na+] (centres unmarked)
A) 8.85

* * *

# System: E. cloacae 260508 (TEM-1, CTX-M-15)
# PROCEDURE_DETAILS: MIC of compounds alone, broth microdilution
# Type: cell-based
# MEASUREMENT_CONDITIONS: Enterobacter cloacae, read-out: MIC compounds of the invention alone
TEST_READOUT: MIC (µg/mL)
Numeric only. Scale: µg/mL

Q) Could you share what MIC was measured for O=C1N2CC(c3ncco3)=CC(C2)N1OS(=O)(=O)[O-].[Na+] (stereo not shown) [Example 25] , tested on E. cloacae 260508 (TEM-1, CTX-M-15)?
A) 4

Q) Could you share what MIC was measured for O=C1N2CC(c3cccnc3)=CC(C2)N1OS(=O)(=O)[O-].[Na+] (stereo not shown) [Example 41] , tested on E. cloacae 260508 (TEM-1, CTX-M-15)?
A) 16

Q) Could you share what MIC was measured for O=C1N2CC=C(c3cnoc3)C(C2)N1OS(=O)(=O)[O-].[Na+] (stereo not shown) [Example 5] , tested on E. cloacae 260508 (TEM-1, CTX-M-15)?
A) 16

Q) Could you share what MIC was measured for O=C1N2CC=C(c3cnco3)C(C2)N1OS(=O)(=O)[O-].[Na+] (stereo not shown) [Example 3] , tested on E. cloacae 260508 (TEM-1, CTX-M-15)?
A) 16

Q) Could you share what MIC was measured for O=C1N2CC(c3ncco3)=C[C@H](C2)N1OC(F)(F)C(=O)O (racemic) [Example 37] , tested on E. cloacae 260508 (TEM-1, CTX-M-15)?
A) 4

Q) Could you share what MIC was measured for O=C1N2CC=C(c3cnoc3)C(C2)N1OC(F)(F)C(=O)[O-].[Li+] (stereo not shown) [Example 6] , tested on E. cloacae 260508 (TEM-1, CTX-M-15)?
A) 4
